# TARGET OR SYSTEM: cPLA2 (Homo sapiens, UniProt P47712)
# Sequence (P47712 1-749): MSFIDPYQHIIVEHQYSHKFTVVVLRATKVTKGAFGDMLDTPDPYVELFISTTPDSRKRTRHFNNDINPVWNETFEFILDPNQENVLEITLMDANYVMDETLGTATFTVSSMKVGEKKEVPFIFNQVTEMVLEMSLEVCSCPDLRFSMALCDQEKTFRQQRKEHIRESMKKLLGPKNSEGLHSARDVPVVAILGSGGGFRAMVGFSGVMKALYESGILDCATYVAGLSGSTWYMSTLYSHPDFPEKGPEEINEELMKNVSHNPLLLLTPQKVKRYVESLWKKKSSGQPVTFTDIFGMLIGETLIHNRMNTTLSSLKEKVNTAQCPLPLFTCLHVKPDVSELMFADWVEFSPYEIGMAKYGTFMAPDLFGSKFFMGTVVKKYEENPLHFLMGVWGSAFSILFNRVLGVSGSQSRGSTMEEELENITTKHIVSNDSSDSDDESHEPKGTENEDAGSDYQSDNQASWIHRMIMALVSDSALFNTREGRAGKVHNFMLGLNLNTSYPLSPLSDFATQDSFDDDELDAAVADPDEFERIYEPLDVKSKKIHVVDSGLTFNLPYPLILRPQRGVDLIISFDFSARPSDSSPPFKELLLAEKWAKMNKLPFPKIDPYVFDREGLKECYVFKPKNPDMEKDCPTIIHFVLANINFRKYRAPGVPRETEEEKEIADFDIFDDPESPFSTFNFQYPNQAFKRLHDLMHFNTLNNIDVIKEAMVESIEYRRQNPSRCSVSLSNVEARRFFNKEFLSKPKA
pIC50: −log10 of the molar value.
OBSERVED PROPERTY: pIC50

Below are worked cases with known answers.
- COMPOUND: "O=C(O)c1ccc(OCCc2c(CCNS(=O)(=O)CCNC(=O)c3ccccc3C(=O)O)n(C(c3ccccc3)c3ccccc3)c3ccc(Cl)cc23)cc1 [Example 48]"
  TARGET OR SYSTEM: "cPLA2 (Homo sapiens, UniProt P47712)"
  OBSERVED PROPERTY: "pIC50"
  MEASURED NUMBER: 5.63
- COMPOUND: "O=C(O)c1ccc(OCCc2c(CCNS(=O)(=O)Cc3ccc(Cl)nc3)n(C(c3ccccc3)c3ccccc3)c3ccc(Cl)cc23)cc1 [Example 75]"
  TARGET OR SYSTEM: "cPLA2 (Homo sapiens, UniProt P47712)"
  OBSERVED PROPERTY: "pIC50"
  MEASURED NUMBER: 6.40
- COMPOUND: "O=C(O)c1ccc(OCCc2c(CCNS(=O)(=O)CCN3CCC(O)C3)n(C(c3ccccc3)c3ccccc3)c3ccc(Cl)cc23)cc1 (stereo not shown) [Example 122]"
  TARGET OR SYSTEM: "cPLA2 (Homo sapiens, UniProt P47712)"
  OBSERVED PROPERTY: "pIC50"
  MEASURED NUMBER: 5.60
- COMPOUND: "O=C(O)c1ccc(OCCc2c(CCNS(=O)(=O)CSc3c(Cl)cccc3Cl)n(C(c3ccccc3)c3ccccc3)c3ccc(Cl)cc23)cc1 [Example 120]"
  TARGET OR SYSTEM: "cPLA2 (Homo sapiens, UniProt P47712)"
  OBSERVED PROPERTY: "pIC50"
  MEASURED NUMBER: 6.40
- COMPOUND: "O=C(O)c1ccc(CCCc2c(CCNS(=O)(=O)Cc3ccc(F)cc3)n(C(c3ccccc3)c3ccccc3)c3ccc(Cl)cc23)cc1 [Example 57]"
  TARGET OR SYSTEM: "cPLA2 (Homo sapiens, UniProt P47712)"
  OBSERVED PROPERTY: "pIC50"
  MEASURED NUMBER: 6.55
- COMPOUND: "Cc1cc(C)cc(CS(=O)(=O)NCCc2c(CCOc3ccc(C(=O)O)cc3)c3cc(Cl)ccc3n2C(c2ccccc2)c2ccccc2)c1 [Example 78]"
  TARGET OR SYSTEM: "cPLA2 (Homo sapiens, UniProt P47712)"
  OBSERVED PROPERTY: "pIC50"
  MEASURED NUMBER: 6.47
- COMPOUND: "O=C(O)c1ccc(OCCc2c(CCNS(=O)(=O)Cc3cc(Cl)cc(Cl)c3)n(C(c3ccccc3)c3ccccc3)c3cc(Cl)ccc23)cc1 [Example 107]"
  TARGET OR SYSTEM: "cPLA2 (Homo sapiens, UniProt P47712)"
  OBSERVED PROPERTY: "pIC50"
  MEASURED NUMBER: 6.48
- COMPOUND: "O=C(O)c1ccc(OCCc2c(CCNS(=O)(=O)Cc3cccc(Cl)c3Cl)n(C(c3ccccc3)c3ccccc3)c3ccc(Cl)cc23)cc1 [Example 29]"
  TARGET OR SYSTEM: "cPLA2 (Homo sapiens, UniProt P47712)"
  OBSERVED PROPERTY: "pIC50"
  MEASURED NUMBER: 6.72

P = O=C(O)CCc1ccc(S(=O)(=O)CCc2c(CCNS(=O)(=O)Cc3c(F)cccc3F)n(C(c3ccccc3)c3ccccc3)c3ccc(Cl)cc23)cc1 [Example 131]
Q = O=C(O)c1ccc(OCCc2c(CCNS(=O)(=O)Cc3ccc(F)c(F)c3)n(C(c3ccccc3)c3ccccc3)c3ccc(Cl)cc23)cc1 [Example 18]
R = O=C(O)c1ccc(OCCc2c(CCNS(=O)(=O)c3cnc(Cl)c(Br)c3)n(C(c3ccccc3)c3ccccc3)c3ccc(Cl)cc23)cc1 [Example 5]
S = O=C(O)CCc1ccc(S(=O)(=O)CCc2c(CCNS(=O)(=O)Cc3ccccc3Cl)n(C(c3ccccc3)c3ccccc3)c3ccc(Cl)cc23)cc1 [Example 133]
T = O=C(O)c1ccc(OCCc2c(CCNS(=O)(=O)CCN3CCC(O)CC3)n(C(c3ccccc3)c3ccccc3)c3ccc(Cl)cc23)cc1 [Example 123]
Asked: Order the items by recorded pIC50; the first position goes to the largest value. Response format: the labels, sorted as the prompt asks.
Given back: S, P, Q, T, R
